System name: human CB1 receptor (Homo sapiens, UniProt P21554)
Construct: expressed in transfected cells; membrane-enriched fractions
Sequence (P21554 whole entry): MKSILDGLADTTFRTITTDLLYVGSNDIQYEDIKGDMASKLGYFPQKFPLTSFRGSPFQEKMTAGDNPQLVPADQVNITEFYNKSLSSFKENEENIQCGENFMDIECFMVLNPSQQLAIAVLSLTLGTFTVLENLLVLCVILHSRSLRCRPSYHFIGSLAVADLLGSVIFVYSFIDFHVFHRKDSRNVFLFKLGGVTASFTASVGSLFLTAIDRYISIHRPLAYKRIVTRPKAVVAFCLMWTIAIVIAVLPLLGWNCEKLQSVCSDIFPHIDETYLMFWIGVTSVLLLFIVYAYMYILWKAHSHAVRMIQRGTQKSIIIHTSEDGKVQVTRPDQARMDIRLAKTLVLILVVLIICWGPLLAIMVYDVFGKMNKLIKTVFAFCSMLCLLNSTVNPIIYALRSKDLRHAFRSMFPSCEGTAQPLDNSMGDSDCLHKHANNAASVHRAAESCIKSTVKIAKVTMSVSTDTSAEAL
Assay method text: competitive radioligand binding assay, displacement of [3H]CP55,940, CB1
Cond: Table 1; percent inhibition at 10 μM
Assay metric: inhibition at 10 µM (%)

- Smiles record: "CCCCOC(=O)Cn1nnc(-c2cccc(Cl)c2)c1-c1cccc(Cl)c1"
  Result units: "%"
  inhibition at 10 µM: 36.7

I. CCCCOC(=O)Cn1nnc(-c2ccc(C(F)(F)F)cc2)c1-c1ccc(C(F)(F)F)cc1
II. CCCCOC(=O)Cn1nnc(-c2ccc(Cl)cc2Cl)c1-c1ccc(Cl)cc1Cl
III. O=C(Cn1nnc(-c2ccccc2)c1-c1ccccc1)N1CCCCC1
IV. CCCCOC(=O)Cn1nnc(-c2ccc(F)c(Cl)c2)c1-c1ccc(F)c(Cl)c1
# sort list by recorded inhibition at 10 µM, greatest to least # list labels per requested ordering
II, I, III, IV
(II: 71.7%, I: 46%, III: 26.6%, IV: 15.7%)

1. CCCCOC(=O)Cn1nnc(-c2ccccc2)c1-c1ccsc1
2. CCCCCCOC(=O)Cn1nnc(-c2ccc(Cl)cc2Cl)c1-c1ccc(Cl)cc1Cl
3. CCCCOC(=O)Cn1nnc(-c2ccccc2)c1-c1ccc(C#N)cc1
4. CCCCOC(=O)Cn1nnc(-c2cccc(C)c2)c1-c1cccc(C)c1
// ascending sort on recorded inhibition at 10 µM The response must list the labels following the requested ordering.
4, 3, 1, 2

====

System name: human CB1 receptor (Homo sapiens)
Construct: expressed in transfected cells; membrane-enriched fractions
Assay method text: competitive radioligand binding assay, displacement of [3H]CP55,940, CB1
Cond: Table 2; percent inhibition at 10 μM
Assay metric: inhibition at 10 µM (%)

Take a look at these entries with their results.
- Smiles record: "O=C(NC12CC3CC(CC(C3)C1)C2)n1nc(-c2ccc(Cl)cc2)c(-c2ccc(Cl)cc2)n1"
  inhibition at 10 µM [%]: 19.7
- Smiles record: "CCCCCCOC(=O)Cn1nc(-c2ccc(Cl)cc2Cl)c(-c2ccc(Cl)cc2Cl)n1"
  inhibition at 10 µM [%]: 72.7
- Smiles record: "CCCCOC(=O)CNC(=O)n1nc(-c2ccc(Cl)cc2Cl)c(-c2ccc(Cl)cc2Cl)n1"
  inhibition at 10 µM [%]: 22.3
- Smiles record: "O=C(NC12CC3CC(CC(C3)C1)C2)n1nc(-c2ccc(Cl)cc2)c(-c2ccc(Cl)cc2Cl)n1"
  inhibition at 10 µM [%]: 34.5
- Smiles record: "CCCCCCCCNC(=O)n1nc(-c2ccc(Cl)cc2)c(-c2ccc(Cl)cc2)n1"
  inhibition at 10 µM [%]: 26.9

A. O=C(Cn1nc(-c2ccc(Cl)cc2)c(-c2ccc(Cl)cc2Cl)n1)NCc1ccccc1Cl
B. CC(C)(C)C(=O)n1nc(-c2ccc(Cl)cc2Cl)c(-c2ccc(Cl)cc2Cl)n1
C. COc1ccc(NC(=O)n2nc(-c3ccc(Cl)cc3)c(-c3ccc(Cl)cc3)n2)cc1
hey, can you rank those compounds up there by inhibition at 10 µM? biggest number first please # format: label list in the order the request specifies
A, B, C

====

System name: human CB1 receptor (Homo sapiens, UniProt P21554)
Construct: expressed in transfected cells; membrane-enriched fractions
Assay method text: competitive radioligand binding assay, displacement of [3H]CP55,940, CB1
Cond: Table 2; percent inhibition at 10 μM
Method: In addition, the affinity of test compounds of this invention toward CB1 and CB2 receptors was determined by competitive radioligand binding assays in vitro. This method differentiates the binding strength between compounds by their abilities in displacing a receptor-specific radioactive ligand. […] The readings of the radioactivity retained allow further analysis of receptor binding, and assist in predictions of the pharmacological activities of the test compounds. […]
Assay metric: inhibition at 10 µM (%)

- Smiles record: "O=C(Cn1nc(-c2ccc(Cl)cc2Cl)c(-c2ccc(Cl)cc2Cl)n1)N[C@@H](CO)[C@H](O)c1ccccc1"
  inhibition at 10 µM [%]: 59.3
- Smiles record: "O=C(Cn1nc(-c2ccc(Cl)cc2)c(-c2ccc(Cl)cc2Cl)n1)NCc1cccc(F)c1"
  inhibition at 10 µM [%]: 87.7
- Smiles record: "O=C(Cn1nc(-c2ccc(Cl)cc2)c(-c2ccc(Cl)cc2Cl)n1)NCc1ccccc1"
  inhibition at 10 µM [%]: 93.9

I. CCCCC(=O)n1nc(-c2ccc(Cl)cc2)c(-c2ccc(Cl)cc2)n1
II. O=C(Cn1nc(-c2ccc(Cl)cc2Cl)c(-c2ccc(Cl)cc2Cl)n1)N[C@@H](CO)[C@H](O)c1ccc([N+](=O)[O-])cc1
III. Cc1cc(C)cc(NC(=O)n2nc(-c3ccc(Cl)cc3)c(-c3ccc(Cl)cc3)n2)c1
IV. O=C(Cn1nc(-c2ccc(Cl)cc2)c(-c2ccc(Cl)cc2Cl)n1)NCc1ccc(Cl)cc1
V. CCCCCCCC(=O)n1nc(-c2ccc(Cl)cc2)c(-c2ccc(Cl)cc2)n1
Hi! Can you put these in order of inhibition at 10 µM, lowest number first? Use the labels to give the requested order.
III, I, V, II, IV

1. O=C(c1ccccc1)n1nc(-c2ccc(Cl)cc2)c(-c2ccc(Cl)cc2)n1
2. O=C(Cn1nc(-c2ccc(Cl)cc2Cl)c(-c2ccc(Cl)cc2Cl)n1)NN1CCCCC1
Between these two entries, 1 and 2 , state which has the higher inhibition at 10 µM. Please respond with the label that marks your chosen entry.
2
(2: 70.3%, 1: 16.2%)

====

System name: human CB1 receptor (Homo sapiens)
Construct: membrane-enriched fractions
Assay method text: competitive radioligand binding assay, displacement of [3H]CP55,940, CB1
Cond: displacement of specific [3H]-CP55940 binding in HEK 293 cells stably transfected with human CB1 receptor
pIC50: −log10 of the molar value.
Assay metric: pIC50

As a guide, the following entries are already answered.
- Molecule: "O=C(Cn1nc(-c2ccc(Cl)cc2)c(-c2ccc(Cl)cc2Cl)n1)NC1CCc2ccccc21 (stereo not shown) [Compound 163]"
  Assay metric: "pIC50"
  Quantitative result: 5.68
- Molecule: "O=C(Cn1nc(-c2ccc(Cl)cc2)c(-c2ccc(Cl)cc2Cl)n1)NCc1ccccc1Cl [Compound 159]"
  Assay metric: "pIC50"
  Quantitative result: 6.44
- Molecule: "O=C(Cn1nc(-c2ccc(Cl)cc2)c(-c2ccc(Cl)cc2Cl)n1)NC1CCCCC1 [Compound 138]"
  Assay metric: "pIC50"
  Quantitative result: 5.77
- Molecule: "O=C(Cn1nc(-c2ccc(Cl)cc2)c(-c2ccc(Cl)cc2Cl)n1)NCc1cccc(F)c1 [Compound 161]"
  Assay metric: "pIC50"
  Quantitative result: 6.28
- Molecule: "O=C(Cn1nc(-c2ccc(Cl)cc2)c(-c2ccc(Cl)cc2Cl)n1)NCc1ccc(F)cc1 [Compound 162]"
  Assay metric: "pIC50"
  Quantitative result: 6.35
- Molecule: "O=C(Cn1nc(-c2ccc(Cl)cc2)c(-c2ccc(Cl)cc2Cl)n1)NCc1ccccc1 [Compound 168]"
  Assay metric: "pIC50"
  Quantitative result: 6.69
- Molecule: "COC[C@H](NC(=O)Cn1nc(-c2ccc(Cl)cc2Cl)c(-c2ccc(Cl)cc2Cl)n1)[C@@H](O)c1ccccc1 [Compound 134]"
  Assay metric: "pIC50"
  Quantitative result: 6.09
- Molecule: "O=C(Cn1nc(-c2ccc(Cl)cc2)c(-c2ccc(Cl)cc2Cl)n1)NCc1ccc(Cl)cc1 [Compound 150]"
  Assay metric: "pIC50"
  Quantitative result: 6.15
- Molecule: "O=C(Cn1nc(-c2ccc(Cl)cc2)c(-c2ccc(Cl)cc2Cl)n1)NCc1cc(F)ccc1F [Compound 165]"
  Assay metric: "pIC50"
  Quantitative result: 6.82
- Molecule: "O=C(Cn1nc(-c2ccc(Cl)cc2)c(-c2ccc(Cl)cc2Cl)n1)NN1CCCCC1 [Compound 142]"
  Assay metric: "pIC50"
  Quantitative result: 5.73

I. CCCCOC(=O)Cn1nc(-c2ccc(Cl)cc2)c(-c2ccc(Cl)cc2)n1 [Compound 112]
II. O=C(Cn1nc(-c2ccc(Cl)cc2)c(-c2ccc(Cl)cc2Cl)n1)NCc1ccccc1F [Compound 160]
III. Cc1cccc(CNC(=O)Cn2nc(-c3ccc(Cl)cc3)c(-c3ccc(Cl)cc3Cl)n2)c1 [Compound 155]
IV. Cc1cccc(CNC(=O)Cn2nc(-c3ccc(Cl)cc3Cl)c(-c3ccc(Cl)cc3Cl)n2)c1 [Compound 188]
Please produce an ascending ranking of these molecules based on pIC50. Your answer should be the labels, listed in the requested order.
I, III, II, IV
(I: 5.55, III: 6.32, II: 6.58, IV: 7.29)

====

System name: human CB1 receptor (Homo sapiens)
Construct: membrane-enriched fractions
Assay method text: competitive radioligand binding assay, displacement of [3H]CP55,940, CB1
Cond: displacement of specific [3H]-CP55940 binding in HEK 293 cells stably transfected with human CB1 receptor
pIC50: −log10 of the molar value.
Assay metric: pIC50

For orientation, consider the following solved cases.
- Compound: "C[C@H](NC(=O)Cn1nc(-c2ccc(Cl)cc2)c(-c2ccc(Cl)cc2Cl)n1)C(O)(c1ccccc1)c1ccccc1 [Compound 143]"
  Assay metric: "pIC50"
  Quantitative result: 6.10
- Compound: "CC(NC(=O)Cn1nc(-c2ccc(Cl)cc2)c(-c2ccc(Cl)cc2Cl)n1)c1ccccc1 (stereo not shown) [Compound 154]"
  Assay metric: "pIC50"
  Quantitative result: 6.11

a. COC[C@H](NC(=O)Cn1nc(-c2ccc(Cl)cc2)c(-c2ccc(Cl)cc2Cl)n1)[C@@H](O)c1ccccc1 [Compound 140]
b. O=C(Cn1nc(-c2ccc(Cl)cc2Cl)c(-c2ccc(Cl)cc2Cl)n1)NCc1ccccc1Cl [Compound 191]
c. O=C(Cn1nc(-c2ccc(Cl)cc2Cl)c(-c2ccc(Cl)cc2Cl)n1)NCc1ccc(F)c(F)c1 [Compound 198]
d. O=C(Cn1nc(-c2ccc(Cl)cc2)c(-c2ccc(Cl)cc2Cl)n1)N1CCCCC1 [Compound 129]
e. O=C(Cn1nc(-c2ccc(Cl)cc2Cl)c(-c2ccc(Cl)cc2Cl)n1)NCc1ccc(F)cc1 [Compound 171]
Sort the compounds on pIC50; start with the lowest figure. Answer format: the labels, in the requested order.
a, d, c, b, e

Reference source for all entries: patent US8293773B2
